Recorded IC50, one value per entry.
- Target system: SARS2 coronavirus 3CL protease (Severe acute respiratory syndrome coronavirus 2)
- Assay protocol: biochemical
- Condition set: 5 nM enzyme, 30 min pre-incubation with compound, 15 μM peptide substrate, 4 h at room temperature; read-out: FRET Potency (nM); IC50 values in the SARS2 3CLPro FRET assay
# number only, unit nM dropped from output

1. C[C@@H]1C[C@@H](C[C@H](NC(=O)c2cc(Cl)ccc2NC(=O)C23CC(C(F)(F)F)(C2)C3)C(=O)C(=O)NC2CC2)C(=O)N1; 6.9
2. CNC(=O)C(=O)[C@H](C[C@@H]1C[C@@H](C)NC1=O)NC(=O)c1cc(Cl)cc(F)c1NC(=O)c1ccnc(C(F)(F)F)c1; 7.2

Field: next compound
Task: Item CNC(=O)C(=O)[C@H](C[C@@H]1C[C@@H](C)NC1=O)NC(=O)c1cc(Cl)ccc1NC(=O)OCC1CCCC(F)(F)C1 (stereo partly drawn) [Example 219] : provide IC50
Output: 7.1

---

Entries annotated with measured IC50
- Target system: SARS2 coronavirus 3CL protease (Severe acute respiratory syndrome coronavirus 2, UniProt P0DTD1)
- Assay protocol: biochemical
- Condition set: 5 nM enzyme, 30 min pre-incubation with compound, 15 μM peptide substrate, 4 h at room temperature; read-out: FRET Potency (nM); IC50 values in the SARS2 3CLPro FRET assay
Give your result in nM as a bare value.

Illustrative cases are given below, each with its answer.
1) O=C(CCC(F)(F)F)Nc1cc(F)c(Cl)cc1C(=O)N[C@@H](C[C@@H]1CCNC1=O)C(=O)C(=O)NC1CC1; 8.1
2) C[C@@H]1C[C@@H](C[C@H](NC(=O)c2cc(Cl)ccc2NC(=O)C2CC23CC3)C(=O)C(=O)NC2CC2)C(=O)N1 (stereo partly shown) [Example 83]; 10.5
3) CNC(=O)C(=O)[C@H](C[C@@H]1C[C@@H](C)NC1=O)NC(=O)c1cc(Cl)ccc1NC(=O)OC(C)C; 12.4

Task: Return reported IC50. Input molecule: C[C@@H]1C[C@@H](C[C@H](NC(=O)c2cc(Cl)ccc2NC(=O)c2cccc(C(F)(F)F)c2)C(=O)C(=O)NC2CC2)C(=O)N1
Output: 7

Task: Supply recorded IC50 for C[C@@H]1C[C@@H](C[C@H](NC(=O)c2cc(Cl)cnc2NC(=O)C23CC(C(F)(F)F)(C2)C3)C(=O)C(=O)NC2CC2)C(=O)N1 here.
Output: 8.7

Task: Using the record for CNC(=O)C(=O)[C@H](C[C@@H]1C[C@@H](C)NC1=O)NC(=O)c1cc(F)cnc1NC(=O)c1cccc(C(F)(F)F)c1 , state its measured IC50.
Output: 13.2

Task: Return value of IC50 for input CNC(=O)C(=O)[C@H](C[C@@H]1CCNC1=O)NC(=O)c1cc(Cl)ccc1NC(=O)C1(C(F)(F)F)CC1 , no commentary.
Output: 15.9

---

- Target system: SARS2 coronavirus 3CL protease (Severe acute respiratory syndrome coronavirus 2, UniProt P0DTD1)
- Assay protocol: biochemical
- Condition set: 5 nM enzyme, 30 min pre-incubation with compound, 15 μM peptide substrate, 4 h at room temperature; read-out: FRET Potency (nM); IC50 values in the SARS2 3CLPro FRET assay
Please use true (1) for IC50 under 40 nM and false (0) for everything else, ties included.

Reference set, count: 4
1. O=C(CCC(F)(F)F)Nc1ccc(Cl)cc1C(=O)N[C@@H](C[C@@H]1CCNC1=O)C(=O)C(=O)NC1CC1 [Example 29]; true (1)
2. O=C(Nc1cc(F)c(F)cc1C(=O)N[C@@H](C[C@@H]1CCNC1=O)C(=O)C(=O)NC1CC1)OC1CC1 [Example 150]; true (1)
3. [2H]C([2H])([2H])OC(=O)Nc1ccc(Cl)cc1C(=O)N[C@@H](C[C@@H]1CCNC1=O)C(=O)C(=O)NC1CC1 [Example 124]; true (1)
4. CNC(=O)C(=O)[C@H](C[C@@H]1CCNC1=O)NC(=O)c1cc(C(F)(F)F)ccc1NC(=O)C1(C(F)(F)F)CC1 [Example 95]; false (0)

Kindly review the next molecule as well.
Task: Determine whether this molecule shows IC50 lower than 40 nM (ties excluded): CNC(=O)C(=O)[C@H](C[C@@H]1C[C@@H](C)NC1=O)NC(=O)c1ccccc1NC(=O)OC [Example 103]
Output: false (0)

---

- Target system: SARS2 coronavirus 3CL protease (Severe acute respiratory syndrome coronavirus 2, UniProt P0DTD1)
- Assay protocol: biochemical
- Condition set: 5 nM enzyme, 30 min pre-incubation with compound, 15 μM peptide substrate, 4 h at room temperature; read-out: FRET Potency (nM); IC50 values in the SARS2 3CLPro FRET assay
Assay endpoint: IC50 (nM)
Express it in nM; write the number only.

Task: Answer with reported IC50 of C[C@@H]1C[C@@H](C[C@H](NC(=O)c2cc(Cl)ccc2NC(=O)C(F)(F)F)C(=O)C(=O)NC2CC2)C(=O)N1
Output: 10.9

Task: Please supply the value of reported IC50 for the item CNC(=O)C(=O)[C@H](C[C@@H]1CCNC1=O)NC(=O)c1cc(Cl)ccc1NC(=O)OCC1CC1
Output: 3.6

Task: Look up IC50 of O=C(NC1CC1)C(=O)[C@H](C[C@@H]1CCNC1=O)NC(=O)c1cc(F)ccc1NC(=O)C1(C(F)(F)F)CC1 and report it.
Output: 48.2

---

- Target system: SARS2 coronavirus 3CL protease (Severe acute respiratory syndrome coronavirus 2, UniProt P0DTD1)
- Assay protocol: biochemical
- Condition set: 5 nM enzyme, 30 min pre-incubation with compound, 15 μM peptide substrate, 4 h at room temperature; read-out: FRET Potency (nM); IC50 values in the SARS2 3CLPro FRET assay
Note to self: IC50 under 10 nM means yes (1), ties and anything higher get no (0).

Record excerpt, results attached:
1. CNC(=O)C(=O)[C@H](C[C@@H]1CCNC1=O)NC(=O)c1cc(F)ccc1NC(=O)c1ccnc(C(F)(F)F)c1; yes (1)
2. CNC(=O)C(=O)[C@H](C[C@@H]1C[C@@H](C)NC1=O)NC(=O)c1cc(F)c(F)cc1NC(=O)OC; no (0)

Task: Regarding CNC(=O)C(=O)[C@H](C[C@@H]1C[C@@H](C)NC1=O)NC(=O)c1cc(Cl)ccc1NC(=O)C(C)C(F)(F)F (stereo partly shown) [Example 19] , kindly confirm whether its IC50 is beneath 10 nM.
Output: no (0)

Task: Consider CNC(=O)C(=O)[C@H](C[C@@H]1C[C@@H](C)NC1=O)NC(=O)c1cc(Cl)cnc1NC(=O)C12CC(F)(C1)C2 . Does its IC50 lie strictly below 10 nM?
Output: yes (1)

Task: Identify whether the compound O=C(NC1CC1)C(=O)[C@H](C[C@@H]1CCCNC1=O)NC(=O)c1cc(Cl)ccc1NC(=O)c1ccnc(C(F)(F)F)c1 records IC50 below 10 nM.
Output: no (0)

Task: Does this compound meet the criterion IC50 < 10 nM? C[C@@H]1C[C@@H](C[C@H](NC(=O)c2cc(Cl)cnc2NC(=O)CCC(F)(F)F)C(=O)C(=O)NC2CC2)C(=O)N1
Output: yes (1)

Task: Here's an entry: C[C@@H]1C[C@@H](C[C@H](NC(=O)c2cc(Cl)ccc2NC(=O)C2CC2)C(=O)C(=O)NC2CC2)C(=O)N1 . Is its IC50 below 10 nM?
Output: no (0)

Task: # TODO verify IC50 < 10 nM strictly for this compound: CNC(=O)C(=O)[C@H](C[C@@H]1C[C@@H](C)NC1=O)NC(=O)c1cc(Cl)ccc1NC(=O)C1CCCC1(F)F (stereo partly shown) [Example 184]
Output: no (0)

Task: Please check: IC50 for CNC(=O)C(=O)[C@H](C[C@@H]1C[C@@H](C)NC1=O)NC(=O)c1cc(Cl)ccc1NC(=O)OCC1CCCC(F)(F)C1 (stereo partly shown) [Example 218] , strictly under 10 nM or not?
Output: yes (1)

Task: Threshold test, IC50 < 10 nM: CNC(=O)C(=O)[C@H](C[C@@H]1CCNC1=O)NC(=O)c1cc(Cl)ccc1NC(=O)OC1CC1
Output: yes (1)

Task: Is 10 nM strictly greater than the compound's reported IC50? compound: C[C@@H]1C[C@@H](C[C@H](NC(=O)c2cc(Cl)ccc2NC(=O)C2CC2C(F)(F)F)C(=O)C(=O)NC2CC2)C(=O)N1 (stereo partly shown) [Example 85]
Output: no (0)

Task: Lab note: confirm whether the reported IC50 for this compound is below 10 nM, equality not counting. compound: CNC(=O)C(=O)[C@H](C[C@@H]1C[C@@H](C)NC1=O)NC(=O)c1cc(Cl)ccc1NC(=O)OCC1CC1
Output: yes (1)

Task: Confirm or reject: IC50 of CNC(=O)C(=O)[C@H](C[C@@H]1C[C@@H](C)NC1=O)NC(=O)c1cc(Cl)c(F)cc1NC(=O)OC1CC1 lies strictly below 10 nM
Output: yes (1)

Task: Does CNC(=O)C(=O)[C@H](C[C@@H]1C[C@@H](C)NC1=O)NC(=O)c1cc(Cl)ccc1NC(=O)c1ccc(C(F)(F)F)cn1 have IC50 strictly under 10 nM?
Output: yes (1)
